test system: Candida albicans UP10; assay type: cell-based; conditions: UP10, 6 h
Where a SMILES comes first, the peptide text is derived from it.

Compound	Units label	EC50
CC[C@H](C)[C@H](NC(=O)[C@@H](N)Cc1ccc(O)cc1)C(=O)N[C@@H](CO)C(=O)N[C@@H](CS)C(=O)N[C@@H](Cc1ccc(O)cc1)C(=O)N[C@@H](CC(N)=O)C(=O)NCC(=O)N[C@@H](C)C(=O)N[C@H](C(=O)N[C@@H](CO)C(=O)N[C@@H](Cc1ccc(O)cc1)C(=O)N[C@@H](C)C(=O)N[C@@H](CCC(N)=O)C(=O)N[C@@H](CCCCN)C(=O)N[C@@H](Cc1ccccc1)C(=O)N[C@@H](CCCCN)C(=O)O)[C@@H](C)O [N12A] (H-YISCYNGATSYAQKFK-OH; N-terminus and C-terminus assumed)	µM	6.48
CC(C)C[C@H](NC(=O)[C@H](CC(N)=O)NC(=O)[C@H](CO)NC(=O)[C@@H](NC(=O)[C@@H](N)CC(C)C)C(C)C)C(=O)N[C@@H](CCC(=O)O)C(=O)N[C@@H](CO)C(=O)O [pc42 L2] (H-LVSNLES-OH)	µM	12
CC[C@H](C)[C@H](NC(=O)[C@@H](N)Cc1ccc(O)cc1)C(=O)N[C@@H](CO)C(=O)N[C@@H](CS)C(=O)N[C@@H](Cc1ccc(O)cc1)C(=O)N[C@@H](CC(N)=O)C(=O)NCC(=O)N[C@@H](C)C(=O)N[C@H](C(=O)N[C@@H](CO)C(=O)N[C@@H](Cc1ccc(O)cc1)C(=O)N[C@@H](CC(N)=O)C(=O)N[C@@H](C)C(=O)N[C@@H](CCCCN)C(=O)N[C@@H](Cc1ccccc1)C(=O)N[C@@H](CCCCN)C(=O)O)[C@@H](C)O [Q13A] (H-YISCYNGATSYNAKFK-OH; N-terminus and C-terminus assumed)	µM	3.91
CC[C@H](C)[C@H](NC(=O)[C@H](C)N)C(=O)N[C@@H](CO)C(=O)N[C@@H](CS)C(=O)N[C@@H](Cc1ccc(O)cc1)C(=O)N[C@@H](CC(N)=O)C(=O)NCC(=O)N[C@@H](C)C(=O)N[C@H](C(=O)N[C@@H](CO)C(=O)N[C@@H](Cc1ccc(O)cc1)C(=O)N[C@@H](CC(N)=O)C(=O)N[C@@H](CCC(N)=O)C(=O)N[C@@H](CCCCN)C(=O)N[C@@H](Cc1ccccc1)C(=O)N[C@@H](CCCCN)C(=O)O)[C@@H](C)O [Y1A] (H-AISCYNGATSYNQKFK-OH; N-terminus and C-terminus assumed)	µM	6.21
N=C(N)NCCC[C@H](NC(=O)[C@H](CO)NC(=O)[C@H](CCCNC(=N)N)NC(=O)[C@@H]1CCCN1C(=O)[C@H](Cc1ccc(O)cc1)NC(=O)[C@H](CO)NC(=O)[C@H](Cc1ccc(O)cc1)NC(=O)[C@H](CC(=O)O)NC(=O)[C@@H](N)CC(N)=O)C(=O)O [C7 L3] (H-NDYSYPRSR-OH)	µM	20.2
CC[C@H](C)[C@H](NC(=O)[C@@H](N)Cc1ccc(O)cc1)C(=O)N[C@@H](CO)C(=O)N[C@@H](CS)C(=O)N[C@@H](Cc1ccc(O)cc1)C(=O)N[C@@H](CC(N)=O)C(=O)NCC(=O)N[C@@H](C)C(=O)N[C@H](C(=O)N[C@@H](C)C(=O)N[C@@H](Cc1ccc(O)cc1)C(=O)N[C@@H](CC(N)=O)C(=O)N[C@@H](CCC(N)=O)C(=O)N[C@@H](CCCCN)C(=O)N[C@@H](Cc1ccccc1)C(=O)N[C@@H](CCCCN)C(=O)O)[C@@H](C)O [S10A] (H-YISCYNGATAYNQKFK-OH; N-terminus and C-terminus assumed)	µM	13.2
CC[C@H](C)[C@H](NC(=O)[C@@H](N)Cc1ccc(O)cc1)C(=O)N[C@@H](C)C(=O)N[C@@H](CS)C(=O)N[C@@H](Cc1ccc(O)cc1)C(=O)N[C@@H](CC(N)=O)C(=O)NCC(=O)N[C@@H](C)C(=O)N[C@H](C(=O)N[C@@H](CO)C(=O)N[C@@H](Cc1ccc(O)cc1)C(=O)N[C@@H](CC(N)=O)C(=O)N[C@@H](CCC(N)=O)C(=O)N[C@@H](CCCCN)C(=O)N[C@@H](Cc1ccccc1)C(=O)N[C@@H](CCCCN)C(=O)O)[C@@H](C)O [S3A] (H-YIACYNGATSYNQKFK-OH; N-terminus and C-terminus assumed)	µM	3.12
CC[C@H](C)[C@H](NC(=O)[C@@H](N)Cc1ccc(O)cc1)C(=O)N[C@@H](CO)C(=O)N[C@@H](CS)C(=O)N[C@@H](Cc1ccc(O)cc1)C(=O)N[C@@H](CC(N)=O)C(=O)NCC(=O)N[C@@H](C)C(=O)N[C@H](C(=O)N[C@@H](CO)C(=O)N[C@@H](Cc1ccc(O)cc1)C(=O)N[C@@H](CC(N)=O)C(=O)N[C@@H](CCC(N)=O)C(=O)N[C@@H](C)C(=O)N[C@@H](Cc1ccccc1)C(=O)N[C@@H](CCCCN)C(=O)O)[C@@H](C)O [K14A] (H-YISCYNGATSYNQAFK-OH; N-terminus and C-terminus assumed)	µM	18.5
CC[C@H](C)[C@H](NC(=O)[C@@H](N)Cc1ccc(O)cc1)C(=O)N[C@@H](CO)C(=O)N[C@@H](CS)C(=O)N[C@@H](Cc1ccc(O)cc1)C(=O)N[C@@H](CC(N)=O)C(=O)NCC(=O)N[C@@H](C)C(=O)N[C@H](C(=O)N[C@@H](CO)C(=O)N[C@@H](Cc1ccc(O)cc1)C(=O)N[C@@H](CC(N)=O)C(=O)N[C@@H](CCC(N)=O)C(=O)N[C@@H](CCCCN)C(=O)N[C@@H](C)C(=O)N[C@@H](CCCCN)C(=O)O)[C@@H](C)O [F15A] (H-YISCYNGATSYNQKAK-OH; N-terminus and C-terminus assumed)	µM	0.904
CC[C@H](C)[C@H](NC(=O)[C@@H](N)Cc1ccc(O)cc1)C(=O)N[C@@H](CO)C(=O)N[C@@H](C)C(=O)N[C@@H](Cc1ccc(O)cc1)C(=O)N[C@@H](CC(N)=O)C(=O)NCC(=O)N[C@@H](C)C(=O)N[C@H](C(=O)N[C@@H](CO)C(=O)N[C@@H](Cc1ccc(O)cc1)C(=O)N[C@@H](CC(N)=O)C(=O)N[C@@H](CCC(N)=O)C(=O)N[C@@H](CCCCN)C(=O)N[C@@H](Cc1ccccc1)C(=O)N[C@@H](CCCCN)C(=O)O)[C@@H](C)O [C4A] (H-YISAYNGATSYNQKFK-OH; N-terminus and C-terminus assumed)	µM	8.23

----------
% inhibitory activity (10 µg/ml), exogenous HIV-1 replication, BaL values by entry
tested on: HIV-1 BaL (R5); assay: In vitro exogenous HIV-1 infection of PHA-stimulated PBMCs, BaL strain (p24 assay); format: cell-based; settings: day 10, p24, mean of 3 determinations
Observation type: % inhibitory activity (10 µg/ml), exogenous HIV-1 replication, BaL

>>> print(df.to_string())
                                  substance  value_observed
0  ARQGVRGGAMD [C7 H3, synthetic peptide identical to heavy chain CDR H3 of mouse mAb C7]              0%
1  VLAYDGSYQHYADSVKG [HuA H2, synthetic peptide identical to heavy chain CDR H2 of human IgM mAb HuA]             74%
2  QHIRELTRSE [pc42 L3, synthetic peptide identical to light chain CDR L3 of mouse mAb pc42]              0%
3  DASNRAT [HuA L2, synthetic peptide identical to light chain CDR L2 of human IgM mAb HuA]              0%
4  WASTRES [C7 L2, synthetic peptide identical to light chain CDR L2 of mouse mAb C7]             59%
5  GQTTVTKIDEDY [HuA H3, synthetic peptide identical to heavy chain CDR H3 of human IgM mAb HuA]              0%
6  PNPLKAM [pc42 H3, synthetic peptide identical to heavy chain CDR H3 of mouse mAb pc42]             11%

----------
tested on: Candida albicans UP10; assay type: cell-based; conditions: C7/pc42 H2 alanine-substituted derivatives; 100 µg/mL, 37°C, 6 h, CFU assay, triplicate
Where a SMILES comes first, the peptide text is derived from it.

Compound	Units label	Anti-Candida activity (%) at 100 µg/mL
CC[C@H](C)[C@H](NC(=O)[C@H](C)N)C(=O)N[C@@H](CO)C(=O)N[C@@H](CS)C(=O)N[C@@H](Cc1ccc(O)cc1)C(=O)N[C@@H](CC(N)=O)C(=O)NCC(=O)N[C@@H](C)C(=O)N[C@H](C(=O)N[C@@H](CO)C(=O)N[C@@H](Cc1ccc(O)cc1)C(=O)N[C@@H](CC(N)=O)C(=O)N[C@@H](CCC(N)=O)C(=O)N[C@@H](CCCCN)C(=O)N[C@@H](Cc1ccccc1)C(=O)N[C@@H](CCCCN)C(=O)O)[C@@H](C)O [Y1A] (H-AISCYNGATSYNQKFK-OH; N-terminus and C-terminus assumed)	%	99.37
CC[C@H](C)[C@H](NC(=O)[C@@H](N)Cc1ccc(O)cc1)C(=O)N[C@@H](CO)C(=O)N[C@@H](CS)C(=O)N[C@@H](Cc1ccc(O)cc1)C(=O)N[C@@H](CC(N)=O)C(=O)NCC(=O)N[C@@H](C)C(=O)N[C@@H](C)C(=O)N[C@@H](CO)C(=O)N[C@@H](Cc1ccc(O)cc1)C(=O)N[C@@H](CC(N)=O)C(=O)N[C@@H](CCC(N)=O)C(=O)N[C@@H](CCCCN)C(=O)N[C@@H](Cc1ccccc1)C(=O)N[C@@H](CCCCN)C(=O)O [T9A] (H-YISCYNGAASYNQKFK-OH; N-terminus and C-terminus assumed)	%	100.00
CC[C@H](C)[C@H](NC(=O)[C@@H](N)Cc1ccc(O)cc1)C(=O)N[C@@H](CO)C(=O)N[C@@H](CS)C(=O)N[C@@H](Cc1ccc(O)cc1)C(=O)N[C@@H](CC(N)=O)C(=O)NCC(=O)N[C@@H](C)C(=O)N[C@H](C(=O)N[C@@H](CO)C(=O)N[C@@H](Cc1ccc(O)cc1)C(=O)N[C@@H](CC(N)=O)C(=O)N[C@@H](CCC(N)=O)C(=O)N[C@@H](C)C(=O)N[C@@H](Cc1ccccc1)C(=O)N[C@@H](CCCCN)C(=O)O)[C@@H](C)O [K14A] (H-YISCYNGATSYNQAFK-OH; N-terminus and C-terminus assumed)	%	91.72
CC[C@H](C)[C@H](NC(=O)[C@@H](N)Cc1ccc(O)cc1)C(=O)N[C@@H](CO)C(=O)N[C@@H](CS)C(=O)N[C@@H](Cc1ccc(O)cc1)C(=O)N[C@@H](CC(N)=O)C(=O)NCC(=O)N[C@@H](C)C(=O)N[C@H](C(=O)N[C@@H](CO)C(=O)N[C@@H](Cc1ccc(O)cc1)C(=O)N[C@@H](CC(N)=O)C(=O)N[C@@H](CCC(N)=O)C(=O)N[C@@H](CCCCN)C(=O)N[C@@H](C)C(=O)N[C@@H](CCCCN)C(=O)O)[C@@H](C)O [F15A] (H-YISCYNGATSYNQKAK-OH; N-terminus and C-terminus assumed)	%	100.00
